- System: UniProt Q8IB66
- Test protocol: IC50 for competition of protein binding to Kinobeads;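 further: native unpurified kinases from lysate captured on beads bearing immobilized kinase inhibitors, with bead-bound kinases quantified by mass spectrometry across compound doses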
- Assay context: assay detail: Kinobeads competition in P. falciparum blood-stage lysate
Measure name: IC50

What the record says about O=c1[nH]c2ccc(Cl)cc2c(NC2CN3CCC2CC3)c1-c1nc2ccccc2[nH]1 (stereo unspecified) [CHIR-124] : IC50 is > 20 µM

---

- System: UniProt Q8I0U7
- Test protocol: IC50 for competition of protein binding to Kinobeads
- Assay context: assay detail: Kinobeads competition in P. falciparum blood-stage lysate
Measure name: IC50

GET /values?item= O=c1[nH]c2ccc(Cl)cc2c(NC2CN3CCC2CC3)c1-c1nc2ccccc2[nH]1 (stereo unspecified) &system= UniProt Q8I0U7 returns IC50: > 20 µM
